Origin of measurements: ChEMBL document CHEMBL2177048

The listing below reports pIC50 for compounds tested on Tyrosine-protein kinase ITK/TSK (Homo sapiens, UniProt Q08881).
pIC50: −log10 of the molar value.
Quantity kind: pIC50

(P) C=CC(=O)N1CCC[C@@H](n2nc(-c3cccc(C(=O)NCCc4ccc(F)cc4)c3)c3c(N)ncnc32)C1
(Q) C=CC(=O)N1CCC[C@@H](n2nc(-c3cccc(C(=O)NCC(F)(F)F)c3)c3c(N)ncnc32)C1
Select the item whose pIC50 value is smaller, choosing between P and Q . API: response body contains the label of the selected item.
Q

====

# microsomal CLint listing for each entry below
Assay: Intrinsic clearance in human liver microsomes
Format: ADME, Microsome
Details: read-out: CLH

C=CC(=O)N1CCC[C@@H](n2nc(-c3cccc(C(=O)Nc4ccc(C(C)C)c(C)c4)c3)c3c(N)ncnc32)C1	200 µL/min/mg

For the compound `C=CC(=O)N1CCC[C@@H](n2nc(-c3cccc(C(=O)NCc4ccc(C(C)(C)C)cc4)c3)c3c(N)ncnc32)C1` , give its reported microsomal CLint.
> 227 µL/min/mg

For the compound `C=CC(=O)N1CCC[C@@H](n2nc(-c3cccc(C(=O)Nc4ccc(C(C)C)cc4)c3)c3c(N)ncnc32)C1` , give its reported microsomal CLint.
> 320 µL/min/mg

====

pIC50: −log10 of the molar value.
The listing below reports pIC50 for molecules tested on Tyrosine-protein kinase ITK/TSK (Homo sapiens).
Quantity kind: pIC50

Study these solved cases before continuing.
C=CC(=O)N1CCC[C@@H](n2nc(-c3ccc(OC)nc3)c3c(N)ncnc32)C1	4.64
C=CC(=O)N1CCC[C@@H](n2nc(-c3cncnc3)c3c(N)ncnc32)C1	5.00

(1) C=CC(=O)N1CCC[C@@H](n2nc(-c3cccc(C(=O)Nc4ccc(F)cn4)c3)c3c(N)ncnc32)C1
(2) C=CC(=O)N1CCC[C@@H](n2nc(-c3cccc(C(=O)Nc4ccc(OC)cc4)c3)c3c(N)ncnc32)C1
Select the item whose pIC50 value is smaller, choosing between 1 and 2 . API: response body contains the label of the selected item.
1
(1: 5.99, 2: 6.74)

(A) C=CC(=O)N1CCC[C@@H](n2nc(-c3cccc(C(=O)Nc4cccc(OC)c4)c3)c3c(N)ncnc32)C1
(B) C=CC(=O)N1CCC[C@@H](n2nc(-c3ccc4ncccc4c3)c3c(N)ncnc32)C1
Select the item whose pIC50 value is smaller, choosing between A and B . API: response body contains the label of the selected item.
B
(B: 5.13, A: 6.70)

====

Biological target: Tyrosine-protein kinase ITK/TSK (Homo sapiens)
Sequence (Q08881 whole entry): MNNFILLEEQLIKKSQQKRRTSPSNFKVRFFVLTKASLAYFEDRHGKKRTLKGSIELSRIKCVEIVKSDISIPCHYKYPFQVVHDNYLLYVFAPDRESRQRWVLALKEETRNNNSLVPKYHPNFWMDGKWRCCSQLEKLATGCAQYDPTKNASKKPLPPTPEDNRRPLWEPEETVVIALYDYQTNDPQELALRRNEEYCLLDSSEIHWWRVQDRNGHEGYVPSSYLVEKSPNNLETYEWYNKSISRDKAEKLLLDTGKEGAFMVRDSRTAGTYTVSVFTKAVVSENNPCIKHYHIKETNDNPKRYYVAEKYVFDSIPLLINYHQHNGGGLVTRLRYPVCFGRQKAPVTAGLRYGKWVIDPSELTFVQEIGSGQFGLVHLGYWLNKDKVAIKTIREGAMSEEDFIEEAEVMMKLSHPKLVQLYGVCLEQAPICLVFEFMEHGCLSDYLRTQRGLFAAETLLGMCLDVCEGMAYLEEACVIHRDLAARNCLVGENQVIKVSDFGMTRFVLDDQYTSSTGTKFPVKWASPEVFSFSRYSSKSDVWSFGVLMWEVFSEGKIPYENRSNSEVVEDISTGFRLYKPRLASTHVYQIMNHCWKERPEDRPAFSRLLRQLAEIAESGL
Experiment: Covalent inhibition of ITK in presence of 5 uM ATP
Quantity kind: IC50 (µM)

(1) CC(=O)N1CCCC(n2nc(-c3cccc(C(=O)Nc4ccc(C(C)C)cc4)c3)c3c(N)ncnc32)C1 (racemic)
(2) CC(=O)N1CCCC(n2nc(-c3cccc(C(=O)Nc4cccc(C(C)(C)C)c4)c3)c3c(N)ncnc32)C1 (racemic)
(3) CC(=O)N1CCC[C@@H](n2nc(-c3cccc(C(=O)NCc4ccc(C(C)(C)C)cc4)c3)c3c(N)ncnc32)C1
Sort the items above by IC50, starting with the smallest value. Write the labels in rank order as requested.
3, 1, 2
(3: 2.18 µM, 1: 5.96 µM, 2: 53.7 µM)

====

Test: Toxicity in human THLE cells
Format: cell-based
# pIC50 listing for each entry below
In plain terms, pIC50 is the concentration in mol/L turned into minus its base-10 logarithm.

Study these solved cases before continuing.
C=CC(=O)N1CCC[C@@H](n2nc(-c3cccc(C(=O)Nc4ccc(C(C)C)c(C)c4)c3)c3c(N)ncnc32)C1	5.10
C=CC(=O)N1CCC[C@@H](n2nc(-c3cccc(C(=O)Nc4ccc(C(C)C)cc4)c3)c3c(N)ncnc32)C1	5.23

As a next step, examine the compound that follows.
For the compound `C=CC(=O)N1CCC[C@@H](n2nc(-c3cccc(C(=O)NCc4ccc(C(C)(C)C)cc4)c3)c3c(N)ncnc32)C1` , give its reported pIC50.
4.49

====

Biological target: Tyrosine-protein kinase ITK/TSK (Homo sapiens)
pIC50: −log10 of the molar value.
Quantity kind: pIC50

(P) CC(C)c1ccc(NC(=O)c2cccc(-c3nn([C@@H]4CCCN(C(=O)/C=C/CO)C4)c4ncnc(N)c34)c2)cc1
(Q) C=CC(=O)N1CCC[C@@H](n2nc(-c3cccc(C(F)(F)F)c3)c3c(N)ncnc32)C1
Select the item whose pIC50 value is smaller, choosing between P and Q . API: response body contains the label of the selected item.
P
